Molecular target: T1, PUF4 RNA-binding domain (Saccharomyces cerevisiae, UniProt P25339 537-888)
T1 sequence: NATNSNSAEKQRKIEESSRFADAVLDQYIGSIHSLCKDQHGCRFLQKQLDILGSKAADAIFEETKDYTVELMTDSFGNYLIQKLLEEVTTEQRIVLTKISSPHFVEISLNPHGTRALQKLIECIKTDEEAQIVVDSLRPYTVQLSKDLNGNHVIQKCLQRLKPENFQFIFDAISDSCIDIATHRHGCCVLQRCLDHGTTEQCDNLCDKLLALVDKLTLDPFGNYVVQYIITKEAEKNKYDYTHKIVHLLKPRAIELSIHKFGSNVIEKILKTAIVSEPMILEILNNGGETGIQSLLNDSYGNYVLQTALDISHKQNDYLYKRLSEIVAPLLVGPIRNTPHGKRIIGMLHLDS
Experiment: Mg; RNA-MaP; 20 mM Na-HEPES pH 7.4, 30 mM KOAc, 0.75 mM MgCl2, 0.1% Tween-20, 5% glycerol, 0.1 mg/mL BSA, 2 mM DTT; 25 C; 0.0125-409.6 nM protein
Details: tags: N-His6-TEV cleaved; C-SNAP kept, Cy3B-labelled; label: tethered on chip by stalled RNA polymerase
result.type: pKd
// returns pKd (minus log10 of molar concentration), number only

Ic_S2_P4E.1_K4.1_C4.1_H4.1_A4.1_[A6C]_[T7A]_F4.1_[T8C]_T4.1 (ssRNA) RNA: UUUGAUUAAUAUGAUAUCGUUCUUUCUUGUAUCACAUUCUUUCUCGAUAUCAUAUUAAUCUUU = 6.46

Query :: Name the recorded pKd for Ib_S2_P5E.1_K5.1_C5.1_H5.1_A5.1_[T6A]_F5.1_[A10G]_T5.1 (ssRNA) RNA: UUUGAUUAAUAUGAUAUCGUUCUUUCUUGUAUAAUUGUUCUUUCUCGAUAUCAUAUUAAUCUUU .
Result :: 8.13

Query :: Queued: UCUCUUUGUUUAUAAUCUCUU (ssRNA) [Ib_S1_P4E.1_K4.1_C4.1_H4.1_[A4T]_A4.1_F4.1_[T8A]_T4.1]
Result :: 6.31

Query :: Queued: UCUCUUUGUACUUGAUCUCUU (ssRNA) [Ic_S1_P4E.1_K4.1_C4.1_H4.1_A4.1_[T5C]_[A6T]_F4.1_[T8G]_T4.1]
Result :: 6.33
